Ref: ChEMBL document CHEMBL4513216

EXPERIMENTAL DETAILS: Toxicity liver stage against HepG2, at 10uM
Assay type: cell-based
Set-up: test concentration 10 uM, cell line HepG2-A16-CD81EGFP
REPORTED CONDITIONS: human, HepG2-A16-CD81EGFP cells; read-out: INHIBITION
READOUT: cytotoxicity at 10 µM (%)
Give a bare numeral; the unit % is implied.

Recorded results for 3 compounds are shown here.
COMPOUND | cytotoxicity at 10 µM [%]
O=C(CCC1CCCCC1)NCc1nnc2ccccn12 | 3.47
CC(C)n1ccnc1CN1CCCN(C(=O)CC2C=CCC2)CC1 (stereo not drawn) | 3.08
CN(Cc1ccncc1)C(=O)c1ccc2c(c1O)OC(C)(C)C2 | 1.95

# return recorded cytotoxicity at 10 µM for input `CC(=O)NCCNC(=O)N(C)Cc1ccc2c(c1)OCCO2`
-1.59

# return recorded cytotoxicity at 10 µM for input `CCCOCCOC(=O)c1ccc2c(c1)[nH]c(=O)n2C`
-16.4

# return recorded cytotoxicity at 10 µM for input Cc1cc(C)c(CNC(=O)N2CCOC(c3ccccc3)C2)c(=O)[nH]1 (stereo not drawn)
0.0687

* * *

EXPERIMENTAL DETAILS: Toxicity liver stage against HepG2, at 10uM
Format: cell-based
Set-up: test concentration 10 uM, cell line HepG2-A16-CD81EGFP
REPORTED CONDITIONS: human, HepG2-A16-CD81EGFP cells; read-out: INHIBITION
READOUT: cytotoxicity at 10 µM (%)
Give a bare numeral; the unit % is implied.

Recorded results for 2 compounds are shown here.
COMPOUND | cytotoxicity at 10 µM [%]
CC1CCC(NC(=O)CNC2(c3ccc(Br)cc3)CCOCC2)CC1 (stereo not drawn) | 3.46
CCOC1CC2(CCN(C(=O)COC)CC2)c2cc(F)ccc21 (stereo not drawn) | -136

// below: cytotoxicity at 10 µM requested for another compound
# return recorded cytotoxicity at 10 µM for input `CCn1cnnc1CNC(=O)N1CCC(O)CC1`
-4.86

* * *

EXPERIMENTAL DETAILS: Toxicity liver stage against HepG2, at 10uM
Assay type: cell-based
Parameters: test concentration 10 uM, cell line HepG2-A16-CD81EGFP
REPORTED CONDITIONS: human, HepG2-A16-CD81EGFP cells; read-out: INHIBITION
READOUT: cytotoxicity at 10 µM (%)
Give a bare numeral; the unit % is implied.

Recorded results for 4 molecules are shown here.
MOLECULE | READOUT | UNIT LABEL | MEASURED VALUE
Cc1ccc(OC2CCN(C(=O)C(C)Cn3cccn3)CC2)cc1 (stereo unspecified) | cytotoxicity at 10 µM | % | -2.09
CC(C)(C)Cc1noc2ncc(C(=O)N3CCC3)cc12 | cytotoxicity at 10 µM | % | 7.28
CN(Cc1ccccc1)c1ncccc1CNC(=O)c1ccnn1C | cytotoxicity at 10 µM | % | -1.37
CC1(C)CN(C(=O)CCc2nc(-c3ccncc3)no2)CCO1 | cytotoxicity at 10 µM | % | -3.16

# return recorded cytotoxicity at 10 µM for input Cc1nc(-c2cc(Cl)c3c(c2)CC(CN)O3)c[nH]1 (stereo unspecified)
-12.2

# return recorded cytotoxicity at 10 µM for input `O=C(CCC1CCN(Cc2ncc[nH]2)CC1)Nc1ccccc1Cl`
-21.8

# return recorded cytotoxicity at 10 µM for input `Cc1ncccc1C(=O)Nc1cccc(OCC(F)F)n1`
-7.79

# return recorded cytotoxicity at 10 µM for input Cc1nc(C(C)NC(=O)c2cn(CCC3CCCCC3)nn2)n[nH]1 (stereo unspecified)
9.21

# return recorded cytotoxicity at 10 µM for input Cc1nnc2n1CC(CNCc1nc(-c3cccs3)no1)CC2 (stereo unspecified)
10.1

# return recorded cytotoxicity at 10 µM for input `CNC(=O)[C@H]1C[C@@H]2CN(C(=O)c3ccc(C)o3)C[C@@H]2N1S(C)(=O)=O`
-2.33

# return recorded cytotoxicity at 10 µM for input `O=C(C1CCS(=O)(=O)CC1)N1CCC(Cc2ccc(F)cc2)CC1`
-41.9

# return recorded cytotoxicity at 10 µM for input O=C(Nc1ccccc1)c1nn(C2CCS(=O)(=O)C2)c2c1CCCC2 (stereo unspecified)
-9.75

# return recorded cytotoxicity at 10 µM for input Cc1cnn(C2CCCN(C(=O)c3ccn(C)c(=O)c3)C2)c1 (stereo unspecified)
4.55

# return recorded cytotoxicity at 10 µM for input CCOc1nnc(CN(C)CC2CCCN2c2cccnn2)s1 (stereo unspecified)
-10.7

# return recorded cytotoxicity at 10 µM for input Cc1cnc(N2C[C@@H]3CN(C4CCOC4)CCC[C@]3(C(=O)O)C2)nc1 (stereo partly specified)
-111

* * *

EXPERIMENTAL DETAILS: Toxicity liver stage against HepG2, at 10uM
Format: cell-based
Set-up: test concentration 10 uM, cell line HepG2-A16-CD81EGFP
REPORTED CONDITIONS: human, HepG2-A16-CD81EGFP cells; read-out: INHIBITION
Property: cytotoxicity at 10 µM; scope: individual compounds
Give a bare numeral; the unit % is implied.

Recorded results for 2 compounds are shown here.
COMPOUND | UNIT LABEL | MEASURED VALUE
CCNC(=O)[C@@H]1CCCN1C1(C(=O)NC)CCC1 | % | -1.66
Cc1noc(C)c1CS(=O)(=O)CC(=O)N1c2ccccc2CC1C (stereo not drawn) | % | 3.53

// below: cytotoxicity at 10 µM requested for another compound
# return recorded cytotoxicity at 10 µM for input CSCCC(=O)N1CCCC(c2ncc[nH]2)C1 (stereo not drawn)
-1.64

* * *

EXPERIMENTAL DETAILS: Toxicity liver stage against HepG2, at 10uM
Assay type: cell-based
Parameters: test concentration 10 uM, cell line HepG2-A16-CD81EGFP
REPORTED CONDITIONS: human, HepG2-A16-CD81EGFP cells; read-out: INHIBITION
Property: cytotoxicity at 10 µM; scope: individual compounds
Give a bare numeral; the unit % is implied.

Recorded results for 5 compounds are shown here.
COMPOUND | UNIT LABEL | MEASURED VALUE
Cc1nc(S(=O)(=O)CCn2cccn2)n(CC2CCCO2)c1C (centres undefined) | % | -4.34
Oc1ccc2oc3c(c2c1CN1CCOCC1)CCCC3 | % | -0.499
COC(=O)c1cnn(-c2cc(Oc3cccc(C)c3)ncn2)c1N | % | 34.1
CN1CCCC1CNC(=O)CCCOc1ccc(I)cc1 (centres undefined) | % | -14
Cc1cc(C)n(CCC2CC(=O)Nc3cc4[nH]ncc4cc32)n1 (centres undefined) | % | -6.17

# return recorded cytotoxicity at 10 µM for input `COc1ccc(S(=O)(=O)N[C@H]2CN(C(C)=O)C[C@@H]2C2CC2)cc1C`
4.57

# return recorded cytotoxicity at 10 µM for input CNC(=O)c1ccc(C2CN(c3cc(C)nc(N)n3)CCO2)nc1 (centres undefined)
2.02

# return recorded cytotoxicity at 10 µM for input `O=C(COC1CCCC1)NS(=O)(=O)c1ccc2c(c1)OCCCO2`
-15.3

# return recorded cytotoxicity at 10 µM for input `Cn1ccc(-c2cc(C(=O)N3CCC(O)CC3)c3ccccn23)n1`
-98.3

* * *

Property: cytotoxicity at 10 µM; scope: individual compounds
EXPERIMENTAL DETAILS: Toxicity liver stage against HepG2, at 10uM
Format: cell-based
Set-up: test concentration 10 uM, cell line HepG2-A16-CD81EGFP
REPORTED CONDITIONS: human, HepG2-A16-CD81EGFP cells; read-out: INHIBITION
Give a bare numeral; the unit % is implied.

COMPOUND | cytotoxicity at 10 µM / %
Cc1cc(N(C)C)nc(N2CCCC2c2ccccn2)n1 (centres undefined) | 3.16
NCc1cnn(-c2ccccc2C(=O)NCc2ccncc2)c1 | -1.78
Cn1cc(N2C[C@@H]3CN(S(=O)(=O)C4CC4)C[C@@H]3C2=O)cn1 | 1.86

// below: cytotoxicity at 10 µM requested for another compound
# return recorded cytotoxicity at 10 µM for input `CC(C)CN1CCc2[nH]cnc2C12CCN(C(=O)c1ccnn1C)CC2`
-4.77

* * *

Property: cytotoxicity at 10 µM; scope: individual compounds
EXPERIMENTAL DETAILS: Toxicity liver stage against HepG2, at 10uM
Assay type: cell-based
Parameters: test concentration 10 uM, cell line HepG2-A16-CD81EGFP
REPORTED CONDITIONS: human, HepG2-A16-CD81EGFP cells; read-out: INHIBITION
Give a bare numeral; the unit % is implied.

COMPOUND | UNIT LABEL | cytotoxicity at 10 µM
O=C(c1ccn(-c2ccccc2)n1)N1CCCC(n2cccn2)C1 (centres undefined) | % | -10.8
COc1ccc(CCC(=O)N2CCCC(n3cncn3)C2)cc1 (centres undefined) | % | -21
Oc1cc(C2CCCCN2C2CCCC2)nc(-c2cccnc2)n1 (centres undefined) | % | 11.2

# return recorded cytotoxicity at 10 µM for input c1ccc(Cc2noc(CN3CCOC(Cn4cccn4)C3)n2)cc1 (centres undefined)
-6.67

# return recorded cytotoxicity at 10 µM for input `CCn1cc(Cl)c(C(=O)NCCOC)n1`
7.05

# return recorded cytotoxicity at 10 µM for input `CCOc1nnc(CN(CC)CC(=O)NC(C)(C)C)s1`
-13.7

# return recorded cytotoxicity at 10 µM for input `c1cncc(-c2nccc(CN3CCCC3)n2)c1`
2.34

# return recorded cytotoxicity at 10 µM for input CCOc1ccccc1CSc1nnc(CC2CCS(=O)(=O)C2)n1C (centres undefined)
10.7

# return recorded cytotoxicity at 10 µM for input `O=C(Cc1ccccn1)N1C[C@H]2CC[C@@H](C1)N(Cc1ccccc1)C2=O`
-13

# return recorded cytotoxicity at 10 µM for input Cc1ccc(C(NC(=O)Cc2nc3ncccn3n2)C2CC2)cc1 (centres undefined)
5.06

# return recorded cytotoxicity at 10 µM for input Cc1cc(CN(C)C(C(=O)O)c2ccc(C(C)(C)C)cc2)on1 (centres undefined)
-6.36

# return recorded cytotoxicity at 10 µM for input c1cncc(CN2Cc3nccn3CC(Cn3cccn3)C2)c1 (centres undefined)
-102

# return recorded cytotoxicity at 10 µM for input `CO[C@@H]1CCC[C@@H](N(C)C(=O)c2cc(F)ccc2F)[C@H]1O`
-5.38

# return recorded cytotoxicity at 10 µM for input `CCCc1cc(=O)[nH]c(SCc2ccccn2)n1`
-3.53

# return recorded cytotoxicity at 10 µM for input COC(=O)c1sc2cccc(F)c2c1CNC(=O)C1CCCO1 (centres undefined)
-13.5

# return recorded cytotoxicity at 10 µM for input `N#Cc1ccc(NCc2cccnc2N2CCC(C(N)=O)CC2)cn1`
-47.9

# return recorded cytotoxicity at 10 µM for input Cn1nnc2c1CCN(Cc1ccccc1)C2COCC1CC1 (centres undefined)
3.24

# return recorded cytotoxicity at 10 µM for input `O=c1ccc(-c2cccs2)nn1CN1CCCCCC1`
-5.51

# return recorded cytotoxicity at 10 µM for input `CC(=O)N[C@@H]1CN(C(=O)c2cc3sccc3[nH]2)C[C@H]1c1ccc(C)o1`
8.98
